- experimental.system: recombinant rat MASP2 active protease (amino acids 296-685, C-terminal His Tag) (rat, UniProt Q9JJS8 296-685)
- Sequence (Q9JJS8 other isoform, or with tags, fused parts or gaps limits assumed): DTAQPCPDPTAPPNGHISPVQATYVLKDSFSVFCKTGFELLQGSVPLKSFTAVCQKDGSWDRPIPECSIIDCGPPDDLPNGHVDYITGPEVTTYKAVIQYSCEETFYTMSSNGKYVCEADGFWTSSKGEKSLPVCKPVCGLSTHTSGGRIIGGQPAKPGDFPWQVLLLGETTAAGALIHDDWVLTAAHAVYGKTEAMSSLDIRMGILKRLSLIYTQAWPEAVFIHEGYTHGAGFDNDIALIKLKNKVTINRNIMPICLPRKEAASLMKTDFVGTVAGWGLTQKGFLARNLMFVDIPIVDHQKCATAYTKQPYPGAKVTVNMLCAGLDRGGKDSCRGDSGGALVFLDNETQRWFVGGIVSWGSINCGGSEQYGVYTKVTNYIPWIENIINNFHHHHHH
- experiment.description: cell-based or functional assay
Bridge positions count the residues as written; N and C are the ends. Square brackets hold non-standard residues; d marks the D form. Ends that are not written are not given here. Pro(3S,4R-methano) = O=C(O)[C@H]1NC[C@@H]2C[C@@H]21; Oic = O=C(O)[C@@H]1C[C@@H]2CCCC[C@@H]2N1; tBuAla = CC(C)(C)C[C@H](N)C(=O)O; Pen = CC(C)(S)[C@H](N)C(=O)O; Sar = CNCC(=O)O
Would you mind telling me the reported rat MASP2 IC50 of each entry?
Respond numerically; units are nM and should not be typed.

# get_value(readout='rat MASP2 IC50', item= [Sar]ICSRSLP[Oic]I[Pen]IPN-OH (disulfide 3-11; N-terminus assumed; SMILES CC[C@H](C)[C@H](NC(=O)CNC)C(=O)N[C@H]1CSSC(C)(C)[C@@H](C(=O)N[C@H](C(=O)N2CCC[C@H]2C(=O)N[C@@H](CC(N)=O)C(=O)O)[C@@H](C)CC)NC(=O)[C@H]([C@@H](C)CC)NC(=O)[C@@H]2C[C@@H]3CCCC[C@@H]3N2C(=O)[C@@H]2CCCN2C(=O)[C@H](CC(C)C)NC(=O)[C@H](CO)NC(=O)[C@H](CCCNC(=N)N)NC(=O)[C@H](CO)NC1=O) [Example 454: ((N-Me)G)-IC+SRSLP-(Oic)-I-(Pen)+IPN-OH] )
79

# get_value(readout='rat MASP2 IC50', item= [Sar]ICSRSL[Pro(3S,4R-methano)]PI[Pen]IPE-NH2 (disulfide 3-11; N-terminus assumed; SMILES CC[C@H](C)[C@H](NC(=O)CNC)C(=O)N[C@H]1CSSC(C)(C)[C@@H](C(=O)N[C@H](C(=O)N2CCC[C@H]2C(=O)N[C@@H](CCC(=O)O)C(N)=O)[C@@H](C)CC)NC(=O)[C@H]([C@@H](C)CC)NC(=O)[C@@H]2CCCN2C(=O)[C@@H]2[C@H]3C[C@H]3CN2C(=O)[C@H](CC(C)C)NC(=O)[C@H](CO)NC(=O)[C@H](CCCNC(=N)N)NC(=O)[C@H](CO)NC1=O) )
55

# get_value(readout='rat MASP2 IC50', item= [Piperidin‑4‑ylacetic acid]ICSRS[tBuAla]PPICIPD-OH (disulfide 3-11) [Example 475: (Piperidin-4-ylacetic acid)-IC+SRS-((tBu)A)-PPIC+IPD-OH] )
25

The reported numbers originate from patent US20210246166A1.
